measurementProtocol: Volume of distribution in steady state in mouse at 1 mg/kg, iv
Format: ADME, organism-based
Design: dose 1 mg/kg, route intravenous
conditionDetails: in vivo, read-out: Vdss
recordedMetric: Vd (L/kg)
A number alone suffices; assume L/kg.

Task item: Fill blank: measured Vd of the compound CO/C(C)=C1/NC(=O)[C@H]([C@@H](C)O)NC(=O)c2csc(n2)-c2cc(OC)c(-c3nc(C(=O)NCCCN4CCOCC4)cs3)nc2-c2csc(n2)[C@@H]2COC(=O)c3c4c5c(cccc5n3O)COC(=O)[C@@H](O[C@H]3C[C@](C)(O)[C@H](N(C)C)[C@H](C)O3)[C@@H](OC4)[C@H](NC(=O)c3csc1n3)c1nc(cs1)C(=O)N2 is ____.
Reply: 18.7

###

measurementProtocol: Plasma clearance in dog at 1 mg/kg, iv
Assay type: ADME, organism-based, Canis lupus familiaris
Parameters: dose 1 mg/kg, route intravenous
recordedMetric: clearance (mL/min/kg)
A number alone suffices; assume mL/min/kg.

Task item: Fill blank: measured clearance of the compound CO/C(C)=C1/NC(=O)[C@H]([C@@H](C)O)NC(=O)c2csc(n2)-c2cc(OC)c(-c3nc(C(=O)NCCCN4CCOCC4)cs3)nc2-c2csc(n2)[C@@H]2COC(=O)c3c4c5c(cccc5n3O)COC(=O)[C@@H](O[C@H]3C[C@](C)(O)[C@H](N(C)C)[C@H](C)O3)[C@@H](OC4)[C@H](NC(=O)c3csc1n3)c1nc(cs1)C(=O)N2 is ____.
Reply: 15.6

###

measurementProtocol: Volume of distribution in steady state in dog at 1 mg/kg, iv
Assay type: ADME, organism-based, Canis lupus familiaris
Parameters: dose 1 mg/kg, route intravenous
conditionDetails: in vivo, read-out: Vdss
recordedMetric: Vd

Task item: Fill blank: measured Vd of the compound CO/C(C)=C1/NC(=O)[C@H]([C@@H](C)O)NC(=O)c2csc(n2)-c2cc(OC)c(-c3nc(C(=O)NCCCN4CCOCC4)cs3)nc2-c2csc(n2)[C@@H]2COC(=O)c3c4c5c(cccc5n3O)COC(=O)[C@@H](O[C@H]3C[C@](C)(O)[C@H](N(C)C)[C@H](C)O3)[C@@H](OC4)[C@H](NC(=O)c3csc1n3)c1nc(cs1)C(=O)N2 is ____.
Reply: 3.3 L/kg

###

The next entries give measured pIC50 for Type-2 angiotensin II receptor (Homo sapiens).
pIC50 field: float, defined as -log10 of concentration (mol/L).

Task item: Fill blank: measured pIC50 of the compound CO/C(C)=C1/NC(=O)[C@H]([C@@H](C)O)NC(=O)c2csc(n2)-c2cc(OC)c(-c3nc(C(=O)NCCCN4CCOCC4)cs3)nc2-c2csc(n2)[C@@H]2COC(=O)c3c4c5c(cccc5n3O)COC(=O)[C@@H](O[C@H]3C[C@](C)(O)[C@H](N(C)C)[C@H](C)O3)[C@@H](OC4)[C@H](NC(=O)c3csc1n3)c1nc(cs1)C(=O)N2 is ____.
Reply: 5.29

Task item: Fill blank: measured pIC50 of the compound CO/C(C)=C1/NC(=O)[C@H]([C@@H](C)O)NC(=O)c2csc(n2)-c2cc(O)c(-c3nc(C(=O)NCCN(C)C)cs3)nc2-c2csc(n2)[C@@H]2COC(=O)c3c4c5c(cccc5n3O)COC(=O)[C@@H](O[C@H]3C[C@](C)(O)[C@H](N(C)C)[C@H](C)O3)[C@@H](OC4)[C@H](NC(=O)c3csc1n3)c1nc(cs1)C(=O)N2 is ____.
Reply: 6.72

Task item: Fill blank: measured pIC50 of the compound CO/C(C)=C1/NC(=O)[C@H]([C@@H](C)O)NC(=O)c2csc(n2)-c2cc(O)c(-c3nc(C(=O)NCCNC(=O)CN4CCOCC4)cs3)nc2-c2csc(n2)[C@@H]2COC(=O)c3c4c5c(cccc5n3O)COC(=O)[C@@H](O[C@H]3C[C@](C)(O)[C@H](N(C)C)[C@H](C)O3)[C@@H](OC4)[C@H](NC(=O)c3csc1n3)c1nc(cs1)C(=O)N2 is ____.
Reply: 6.60

Task item: Fill blank: measured pIC50 of the compound CO/C(C)=C1/NC(=O)[C@H]([C@@H](C)O)NC(=O)c2csc(n2)-c2cc(OC)c(-c3nc(C(=O)NCCCN4CCN(C)CC4)cs3)nc2-c2csc(n2)[C@@H]2COC(=O)c3c4c5c(cccc5n3O)COC(=O)[C@@H](O[C@H]3C[C@](C)(O)[C@H](N(C)C)[C@H](C)O3)[C@@H](OC4)[C@H](NC(=O)c3csc1n3)c1nc(cs1)C(=O)N2 is ____.
Reply: 6.07

###

measurementProtocol: Terminal half life in monkey at 1 mg/kg, iv
Format: ADME, organism-based, Macaca mulatta
Parameters: dose 1 mg/kg, route intravenous
conditionDetails: rhesus monkey, in vivo, read-out: beta t1/2 (converted)
recordedMetric: half-life (h)
A number alone suffices; assume h.

Task item: Fill blank: measured half-life of the compound CO/C(C)=C1/NC(=O)[C@H]([C@@H](C)O)NC(=O)c2csc(n2)-c2cc(OC)c(-c3nc(C(=O)NCCCN4CCOCC4)cs3)nc2-c2csc(n2)[C@@H]2COC(=O)c3c4c5c(cccc5n3O)COC(=O)[C@@H](O[C@H]3C[C@](C)(O)[C@H](N(C)C)[C@H](C)O3)[C@@H](OC4)[C@H](NC(=O)c3csc1n3)c1nc(cs1)C(=O)N2 is ____.
Reply: 6.5

###

For each entry below, report its MIC value.
Test system: Streptococcus pneumoniae
measurementProtocol: Antibacterial activity against Streptococcus pneumoniae CL2883 in liquid culture by turbidity method
Type: functional
A number alone suffices; assume ng/mL.

Task item: Fill blank: measured MIC of the compound CO/C(C)=C1/NC(=O)[C@H]([C@@H](C)O)NC(=O)c2csc(n2)-c2cc(O)c(-c3nc(C(=O)NCCNCC(O)CO)cs3)nc2-c2csc(n2)[C@@H]2COC(=O)c3c4c5c(cccc5n3O)COC(=O)[C@@H](O[C@H]3C[C@](C)(O)[C@H](N(C)C)[C@H](C)O3)[C@@H](OC4)[C@H](NC(=O)c3csc1n3)c1nc(cs1)C(=O)N2 (stereo partly specified) is ____.
Reply: 125

Task item: Fill blank: measured MIC of the compound CO/C(C)=C1/NC(=O)[C@H]([C@@H](C)O)NC(=O)c2csc(n2)-c2cc(O)c(-c3nc(C(=O)NCCCN(C)C)cs3)nc2-c2csc(n2)[C@@H]2COC(=O)c3c4c5c(cccc5n3O)COC(=O)[C@@H](O[C@H]3C[C@](C)(O)[C@H](N(C)C)[C@H](C)O3)[C@@H](OC4)[C@H](NC(=O)c3csc1n3)c1nc(cs1)C(=O)N2 is ____.
Reply: 0.95

Task item: Fill blank: measured MIC of the compound CO/C(C)=C1/NC(=O)[C@H]([C@@H](C)O)NC(=O)c2csc(n2)-c2cc(O)c(-c3nc(C(=O)NCCNC(=O)CN(C)C)cs3)nc2-c2csc(n2)[C@@H]2COC(=O)c3c4c5c(cccc5n3O)COC(=O)[C@@H](O[C@H]3C[C@](C)(O)[C@H](N(C)C)[C@H](C)O3)[C@@H](OC4)[C@H](NC(=O)c3csc1n3)c1nc(cs1)C(=O)N2 is ____.
Reply: 0.59

Task item: Fill blank: measured MIC of the compound CO/C(C)=C1/NC(=O)[C@H]([C@@H](C)O)NC(=O)c2csc(n2)-c2cc(O)c(-c3nc(C(=O)N4CCN(CC(=O)N(C)C)CC4)cs3)nc2-c2csc(n2)[C@@H]2COC(=O)c3c4c5c(cccc5n3O)COC(=O)[C@@H](O[C@H]3C[C@](C)(O)[C@H](N(C)C)[C@H](C)O3)[C@@H](OC4)[C@H](NC(=O)c3csc1n3)c1nc(cs1)C(=O)N2 is ____.
Reply: 3.8

Task item: Fill blank: measured MIC of the compound C=C(NC(=O)c1csc(-c2nc3c(cc2O)-c2nc(cs2)C(=O)N[C@@H]([C@@H](C)O)C(=O)N/C(=C(\C)OC)c2nc(cs2)C(=O)N[C@@H]2c4nc(cs4)C(=O)N[C@@H](COC(=O)c4c5c6c(cccc6n4O)COC(=O)[C@@H](O[C@H]4C[C@](C)(O)[C@H](N(C)C)[C@H](C)O4)[C@H]2OC5)c2nc-3cs2)n1)C(N)=O [MJ347-81F4 A] is ____.
Reply: 2

Task item: Fill blank: measured MIC of the compound CO/C(C)=C1/NC(=O)[C@H]([C@@H](C)O)NC(=O)c2csc(n2)-c2cc(O)c(-c3nc(C(=O)NCCCN4CCOCC4)cs3)nc2-c2csc(n2)[C@@H]2COC(=O)c3c4c5c(cccc5n3O)COC(=O)[C@@H](O[C@H]3C[C@](C)(O)[C@H](N(C)C)[C@H](C)O3)[C@@H](OC4)[C@H](NC(=O)c3csc1n3)c1nc(cs1)C(=O)N2 is ____.
Reply: 7

Data provenance is ChEMBL document CHEMBL1136943.
